Data credit: patent US7550495B2

# test: Metabolic stability assay in human liver microsomes
# Assay type: in vitro ADME
# condition.description: pH 7.4, 37° C., read-out: hCLint
Quick rule for you: microsomal CLint at 1.6 µM at 7 µL/min/mg or higher means T, lower means F.

1. CC(C)(C)c1nc2cc(NS(=O)(=O)C3CC3)ccc2n1CC1CCC(F)CC1 (stereo not shown) | F

Query: Given "CC(C)(C)c1nc2cc(NS(=O)(=O)C3CC3)ccc2n1CC1CCC(F)(F)CC1" , state whether its microsomal CLint at 1.6 µM is at least 7 µL/min/mg.
Reply: T

Query: Given "CCS(=O)(=O)Nc1ccc2c(c1)nc(C(C)(C)C)n2CC1CCC(F)(F)CC1" , state whether its microsomal CLint at 1.6 µM is at least 7 µL/min/mg.
Reply: F

Query: Given CC(C)(C)c1nc2cc(NS(=O)(=O)C(C)(C)C)ccc2n1CC1CCC(F)CC1 (stereo not shown) , state whether its microsomal CLint at 1.6 µM is at least 7 µL/min/mg.
Reply: T

Query: Given "CC(F)(F)c1nc2cc(NS(=O)(=O)C(C)(C)C)ccc2n1CC1CCC(F)(F)CC1" , state whether its microsomal CLint at 1.6 µM is at least 7 µL/min/mg.
Reply: F

Query: Given "CC(C)(C)c1nc2cc(NS(C)(=O)=O)ccc2n1CC1CCC(F)(F)CC1" , state whether its microsomal CLint at 1.6 µM is at least 7 µL/min/mg.
Reply: T

Query: Given "CCCS(=O)(=O)Nc1ccc2c(c1)nc(C(C)(C)C)n2CC1CCC(F)(F)CC1" , state whether its microsomal CLint at 1.6 µM is at least 7 µL/min/mg.
Reply: T

Query: Given "CC(C)(C)c1nc2cc(NS(=O)(=O)C(C)(C)C)ccc2n1CC1CCC(F)(F)CC1" , state whether its microsomal CLint at 1.6 µM is at least 7 µL/min/mg.
Reply: T

Query: Given "CC(F)(F)c1nc2cc(NS(=O)(=O)C3CC3)ccc2n1CC1CCC(F)(F)CC1" , state whether its microsomal CLint at 1.6 µM is at least 7 µL/min/mg.
Reply: F

Query: Given CCS(=O)(=O)Nc1ccc2c(c1)nc(C(C)(C)C)n2CC1CCC(F)CC1 (stereo not shown) , state whether its microsomal CLint at 1.6 µM is at least 7 µL/min/mg.
Reply: F
